Overview of reported % Ctrl across a group of compounds:
system: ABL1(F3171)-phosphorylated; assay: KINOMEscan kinase binding assay; conditions: at 1 μM
assay_metric: % Ctrl

[[record]]
structure_as_smiles = "Cc1cc2c([nH]1)/C=C1\\C(=O)Nc3ccc(cc31)-c1c(nn(C)c1C)COCCN(C)C2=O"
measured_result = "98%"

[[record]]
structure_as_smiles = "C[C@@H]1COCc2nn(C)cc2-c2cc(Cl)c3c(c2)/C(=C/c2[nH]ccc2C(=O)N1)C(=O)N3"
measured_result = "98%"

[[record]]
structure_as_smiles = "Cc1cc2c([nH]1)/C=C1\\C(=O)Nc3c(Cl)cc(cc31)-c1cn(C)nc1COC[C@@H](C)NC2=O"
measured_result = "97%"

[[record]]
structure_as_smiles = "Cc1cc2c([nH]1)/C=C1\\C(=O)Nc3ccc(cc31)-c1c(nn(C)c1C)OCCCN(C)C2=O"
measured_result = "64%"

[[record]]
structure_as_smiles = "Cc1cc2c([nH]1)/C=C1\\C(=O)Nc3c(Cl)cc(cc31)-c1cn(C)nc1COC[C@@H](C)N(C)C2=O"
measured_result = "97%"


###

tested on: FLT3(D835H); assay: KINOMEscan kinase binding assay; settings: at 1 μM
Fulfilled if % Ctrl is below 80%. Not fulfilled if not; exact matches included in Not fulfilled.

[[record]]
structure_as_smiles = "C[C@@H]1COCc2nn(C)cc2-c2cc(Cl)c3c(c2)/C(=C/c2[nH]ccc2C(=O)N1)C(=O)N3"
group_label = "Fulfilled"

[[record]]
structure_as_smiles = "Cc1cc2c([nH]1)/C=C1\\C(=O)Nc3c(Cl)cc(cc31)-c1cn(C)nc1COC[C@@H](C)NC2=O"
group_label = "Not fulfilled"

[[record]]
structure_as_smiles = "Cc1cc2c([nH]1)/C=C1\\C(=O)Nc3ccc(cc31)-c1c(nn(C)c1C)COCCN(C)C2=O"
group_label = "Fulfilled"

[[record]]
structure_as_smiles = "Cc1cc2c([nH]1)/C=C1\\C(=O)Nc3ccc(cc31)-c1c(nn(C)c1C)OCCCN(C)C2=O"
group_label = "Not fulfilled"


###

system: MST1R; assay: KINOMEscan kinase binding assay; conditions: at 1 μM
Parameter % Ctrl: see the listing below.
assay_metric: % Ctrl (%)

[[record]]
compound = "Cc1cc2c([nH]1)/C=C1\\C(=O)Nc3c(Cl)cc(cc31)-c1cn(C)nc1COC[C@@H](C)NC2=O [Cpd. 3]"
assay_metric = "% Ctrl"
measured_result = 98

[[record]]
compound = "C[C@@H]1COCc2nn(C)cc2-c2cc(Cl)c3c(c2)/C(=C/c2[nH]ccc2C(=O)N1)C(=O)N3 [Cpd. 4]"
assay_metric = "% Ctrl"
measured_result = 100

[[record]]
compound = "Cc1cc2c([nH]1)/C=C1\\C(=O)Nc3c(Cl)cc(cc31)-c1cn(C)nc1COC[C@@H](C)N(C)C2=O [Cpd. 5]"
assay_metric = "% Ctrl"
measured_result = 95

[[record]]
compound = "Cc1cc2c([nH]1)/C=C1\\C(=O)Nc3ccc(cc31)-c1c(nn(C)c1C)COCCN(C)C2=O [Cpd. 2]"
assay_metric = "% Ctrl"
measured_result = 100

[[record]]
compound = "Cc1cc2c([nH]1)/C=C1\\C(=O)Nc3ccc(cc31)-c1c(nn(C)c1C)OCCCN(C)C2=O [Cpd. 1]"
assay_metric = "% Ctrl"
measured_result = 100

